Reference for the values: the supplement of paper PMC11061612

Provide the reported combination Emax of each item.
System: L-1236 (Hodgkin's Lymphoma)
procedure_summary: combination Emax (second highest fraction inhibited in the dose matrix, 72 h); higher = more inhibition; extreme values may be limits of the assay
Give bare numbers.

Recorded combination Emax, per entry:
CCc1c2c(nc3ccc(O)cc13)-c1cc3c(c(=O)n1C2)COC(=O)[C@]3(O)CC [SN-38] + CN(C)CCCOc1ccc(-c2ccc3ncc4c(c3c2)n(C2CCOCC2)c(=O)n4C)cn1 [AZD0156] (first compound max 0.3 µM, 7x7, partner max 1 µM); 0.76
CC(=O)c1c(C)c2cnc(Nc3ccc(N4CCNCC4)cn3)nc2n(C2CCCC2)c1=O [Palbociclib] + CC1(C)CCC(CN2CCN(c3ccc(C(=O)NS(=O)(=O)c4ccc(NCC5CCOCC5)c([N+](=O)[O-])c4)c(Oc4cnc5[nH]ccc5c4)c3)CC2)=C(c2ccc(Cl)cc2)C1 [Venetoclax] (first compound max 10 µM, 7x7, partner max 1 µM); 0.611

Batch lookup, combination Emax per entry.
1. NC1(C(=O)N[C@@H](CCO)c2ccc(Cl)cc2)CCN(c2ncnc3[nH]ccc23)CC1 [Capivasertib] + COc1nnc2ccc(N3CCC(c4ccc(OCCN5CCN(C)C(=O)[C@H]5C)cc4)CC3)nn12 [AZD5153] (first compound max 10 µM, 7x7, partner max 1 µM)
2. CN(CCO)CC[C@H](CSc1ccccc1)Nc1ccc(S(=O)(=O)NC(=O)c2ccc(N3CCC([C@@H](O)c4ccccc4-c4ccc(Cl)cc4)CC3)cc2)cc1S(=O)(=O)C(F)(F)F [AZD4320] + Cc1cc2ncnn2cc1Nc1ncc2c(n1)n(C1CCOCC1)c(=O)n2C [AZD7648] (first compound max 1 µM, 7x7, partner max 10 µM)
3. N#Cc1cnc(Nc2cc(NC[C@H]3CNCCO3)c(C(F)(F)F)cn2)cn1 [SRA737] + C=CCn1c(=O)c2cnc(Nc3ccc(N4CCN(C)CC4)cc3)nc2n1-c1cccc(C(C)(C)O)n1 [AZD1775] (first compound max 10 µM, partner max 1 µM)
4. COc1nnc2ccc(N3CCC(c4ccc(OCCN5CCN(C)C(=O)[C@H]5C)cc4)CC3)nn12 [AZD5153] + C=CCn1c(=O)c2cnc(Nc3ccc(N4CCN(C)CC4)cc3)nc2n1-c1cccc(C(C)(C)O)n1 [AZD1775] (first compound max 1 µM, partner max 1 µM)
5. C[C@@H](Nc1cc(F)cc(F)c1)c1cc(C(=O)N(C)C)cc2c(=O)cc(N3CCOCC3)oc12 [AZD8186] + CC(=O)c1c(C)c2cnc(Nc3ccc(N4CCNCC4)cn3)nc2n(C2CCCC2)c1=O [Palbociclib] (first compound max 10 µM, 7x7, partner max 10 µM)

[1, 0.958, 0.952, 0.999, 0.697]

====

System: RKN (Other Solid Carcinomas)
procedure_summary: combination Emax (second highest fraction inhibited in the dose matrix, 72 h); higher = more inhibition; extreme values may be limits of the assay
Record form. Attribute: combination Emax. Fill in for each entry.
Numbers only.

CS(=O)(=O)CCNCc1ccc(-c2ccc3ncnc(Nc4ccc(OCc5cccc(F)c5)c(Cl)c4)c3c2)o1 [Lapatinib] + NC1(c2ccc(-c3nc4ccn5c(=O)[nH]nc5c4cc3-c3ccccc3)cc2)CCC1 [MK-2206] (first compound max 10 µM, 7x7, partner max 10 µM); 0.346
CC1(C)CCC(CN2CCN(c3ccc(C(=O)NS(=O)(=O)c4ccc(NCC5CCOCC5)c([N+](=O)[O-])c4)c(Oc4cnc5[nH]ccc5c4)c3)CC2)=C(c2ccc(Cl)cc2)C1 [Venetoclax] + Cn1cnc2c(F)c(Nc3ccc(Br)cc3Cl)c(C(=O)NOCCO)cc21 [Selumetinib] (first compound max 1 µM, 7x7, partner max 3 µM); 0.291
COc1cccc(OCCCN)c1-c1cc(Nc2cnc(C#N)cn2)n[nH]1 [Prexasertib] + C=CCn1c(=O)c2cnc(Nc3ccc(N4CCN(C)CC4)cc3)nc2n1-c1cccc(C(C)(C)O)n1 [AZD1775] (first compound max 1 µM, partner max 1 µM); 0.833

State the recorded combination Emax for every item in the following list.
1. COc1cccc(OCCCN)c1-c1cc(Nc2cnc(C#N)cn2)n[nH]1 [Prexasertib] + CN(C)CCCOc1ccc(-c2ccc3ncc4c(c3c2)n(C2CCOCC2)c(=O)n4C)cn1 [AZD0156] (first compound max 1 µM, 7x7, partner max 1 µM)
2. CN(CCO)CC[C@H](CSc1ccccc1)Nc1ccc(S(=O)(=O)NC(=O)c2ccc(N3CCC([C@@H](O)c4ccccc4-c4ccc(Cl)cc4)CC3)cc2)cc1S(=O)(=O)C(F)(F)F [AZD4320] + CN(C)CCCOc1ccc(-c2ccc3ncc4c(c3c2)n(C2CCOCC2)c(=O)n4C)cn1 [AZD0156] (first compound max 1 µM, 7x7, partner max 1 µM)
3. C=CCn1c(=O)c2cnc(Nc3ccc(N4CCN(C)CC4)cc3)nc2n1-c1cccc(C(C)(C)O)n1 [AZD1775] + O=C(c1cc(Cc2n[nH]c(=O)c3ccccc23)ccc1F)N1CCN(C(=O)C2CC2)CC1 [Olaparib] (first compound max 1 µM, partner max 10 µM)
4. C[C@@H](Nc1cc(F)cc(F)c1)c1cc(C(=O)N(C)C)cc2c(=O)cc(N3CCOCC3)oc12 [AZD8186] + C1CN(CCC1(C(=O)N[C@@H](CCO)C2=CC=C(C=C2)Cl)N)C3=NC=NC4=C3C=CN4 [AZD5363] (first compound max 10 µM, 7x7, partner max 10 µM)

0.67
0.102
0.355
0.328

Look at each compound and report its combination Emax.
1. CN(CCO)CC[C@H](CSc1ccccc1)Nc1ccc(S(=O)(=O)NC(=O)c2ccc(N3CCC([C@@H](O)c4ccccc4-c4ccc(Cl)cc4)CC3)cc2)cc1S(=O)(=O)C(F)(F)F [AZD4320] + Cc1cc2ncnn2cc1Nc1ncc2c(n1)n(C1CCOCC1)c(=O)n2C [AZD7648] (first compound max 1 µM, 7x7, partner max 10 µM)
2. CS(=O)(=O)CCNCc1ccc(-c2ccc3ncnc(Nc4ccc(OCc5cccc(F)c5)c(Cl)c4)c3c2)o1 [Lapatinib] + C[C@@H](Oc1cc(-c2cnn(C3CCNCC3)c2)cnc1N)c1c(Cl)ccc(F)c1Cl [Crizotinib] (first compound max 10 µM, 7x7, partner max 10 µM)
3. CS(=O)(=O)CCNCc1ccc(-c2ccc3ncnc(Nc4ccc(OCc5cccc(F)c5)c(Cl)c4)c3c2)o1 [Lapatinib] + Cn1cnc2c(F)c(Nc3ccc(Br)cc3Cl)c(C(=O)NOCCO)cc21 [Selumetinib] (first compound max 10 µM, 7x7, partner max 10 µM)
4. N#Cc1cnc(Nc2cc(NC[C@H]3CNCCO3)c(C(F)(F)F)cn2)cn1 [SRA737] + O=c1[nH]cc(F)c(=O)[nH]1 [5-Fluorouracil] (first compound max 10 µM, 7x7, partner max 20 µM)
5. O=C(c1cc(Cc2n[nH]c(=O)c3ccccc23)ccc1F)N1CCN(C(=O)C2CC2)CC1 [Olaparib] + Cc1c2c(nn1C)CSCc1cc(n(C)n1)CSc1cc(c3ccccc3c1)OCCCc1c(C(=O)O)n(C)c3c-2c(Cl)ccc13 [AZD5991] (first compound max 10 µM, 7x7, partner max 1 µM)
6. CN(CCO)CC[C@H](CSc1ccccc1)Nc1ccc(S(=O)(=O)NC(=O)c2ccc(N3CCC([C@@H](O)c4ccccc4-c4ccc(Cl)cc4)CC3)cc2)cc1S(=O)(=O)C(F)(F)F [AZD4320] + C[C@@H](Nc1cc(F)cc(F)c1)c1cc(C(=O)N(C)C)cc2c(=O)cc(N3CCOCC3)oc12 [AZD8186] (first compound max 1 µM, 7x7, partner max 3 µM)
7. Cc1c2c(nn1C)CSCc1cc(n(C)n1)CSc1cc(c3ccccc3c1)OCCCc1c(C(=O)O)n(C)c3c-2c(Cl)ccc13 [AZD5991] + C1CN(CCC1(C(=O)N[C@@H](CCO)C2=CC=C(C=C2)Cl)N)C3=NC=NC4=C3C=CN4 [Capivasertib] (first compound max 1 µM, 7x7, partner max 3 µM)

0.135
0.294
0.369
0.344
0.161
0.314
0.173

====

Tested on: SF539 (Glioblastoma);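 note: after 72 h of two-drug dosing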
procedure_summary: Bliss excess, mean over the matrix (fraction); higher = more synergy
Classification field: Condition met = Bliss excess at or over 0.03; Condition not met = Bliss excess under 0.03.

Study these solved cases before continuing.
CN(CCO)CC[C@H](CSc1ccccc1)Nc1ccc(S(=O)(=O)NC(=O)c2ccc(N3CCC([C@@H](O)c4ccccc4-c4ccc(Cl)cc4)CC3)cc2)cc1S(=O)(=O)C(F)(F)F [AZD4320] + C=CCn1c(=O)c2cnc(Nc3ccc(N4CCN(C)CC4)cc3)nc2n1-c1cccc(C(C)(C)O)n1 [AZD1775] (first compound max 1 µM, partner max 1 µM); Condition not met
N#Cc1cnc(Nc2cc(NC[C@H]3CNCCO3)c(C(F)(F)F)cn2)cn1 [SRA737] + O=c1[nH]cc(F)c(=O)[nH]1 [5-Fluorouracil] (first compound max 10 µM, 7x7, partner max 20 µM); Condition met
C=CCn1c(=O)c2cnc(Nc3ccc(N4CCN(C)CC4)cc3)nc2n1-c1cccc(C(C)(C)O)n1 [AZD1775] + O=C(c1cc(Cc2n[nH]c(=O)c3ccccc23)ccc1F)N1CCN(C(=O)C2CC2)CC1 [Olaparib] (first compound max 1 µM, partner max 10 µM); Condition not met
Cc1c2c(nn1C)CSCc1cc(n(C)n1)CSc1cc(c3ccccc3c1)OCCCc1c(C(=O)O)n(C)c3c-2c(Cl)ccc13 [AZD5991] + Cc1cc2ncnn2cc1Nc1ncc2c(n1)n(C1CCOCC1)c(=O)n2C [AZD7648] (first compound max 1 µM, 7x7, partner max 10 µM); Condition not met
COc1cccc(OCCCN)c1-c1cc(Nc2cnc(C#N)cn2)n[nH]1 [Prexasertib] + CCc1c2c(nc3ccc(O)cc13)-c1cc3c(c(=O)n1C2)COC(=O)[C@]3(O)CC [SN-38] (first compound max 1 µM, 7x7, partner max 0.3 µM); Condition not met

Answer whether Bliss excess of Cc1c2c(nn1C)CSCc1cc(n(C)n1)CSc1cc(c3ccccc3c1)OCCCc1c(C(=O)O)n(C)c3c-2c(Cl)ccc13 [AZD5991] + CCN(CCO)CCCOc1ccc2c(Nc3cc(CC(=O)Nc4cccc(F)c4)[nH]n3)ncnc2c1 [AZD2811] (first compound max 1 µM, 7x7, partner max 1 µM) is greater than or equal to 0.03.
Condition not met

Quick check, Bliss excess >= 0.03? CN(CCO)CC[C@H](CSc1ccccc1)Nc1ccc(S(=O)(=O)NC(=O)c2ccc(N3CCC([C@@H](O)c4ccccc4-c4ccc(Cl)cc4)CC3)cc2)cc1S(=O)(=O)C(F)(F)F [AZD4320] + CC(=O)O[C@H]1C(=O)[C@@]2(C)[C@H]([C@H](OC(=O)c3ccccc3)[C@]3(O)C[C@H](OC(=O)[C@H](O)[C@@H](NC(=O)c4ccccc4)c4ccccc4)C(C)=C1C3(C)C)[C@]1(OC(C)=O)CO[C@@H]1C[C@@H]2O [Paclitaxel] (first compound max 1 µM, 7x7, partner max 3 µM)
Condition met
